FYI, the data here is from patent EP0290169A2.

Here the recorded Surv. is given for each entry.
# Tested on: Sarcoma 180 ascites
# assay.info: S180a screening (Sarcoma 180 ascites tumor model), increase in life span
# Type: in vivo, CFW mice
# test.conditions: dose 80.00 mg/kg on day 1, vehicle water; survivors on day of evaluation

Known results for compounds:
| compound | target.under.test | observed.measurement |
| --- | --- | --- |
| CC(N)CN.CCC1C(=O)[O][Pt][O]P1(=O)[O-].[Na+] (mixture of isomers) [Ex 8, Na[Pt(pn)(2-phosphonobutyrate)]] | Sarcoma 180 ascites | 0/ 6 |
| CCC(C)(C(=O)[O-])P(=O)([O-])[O-].N[C@@H]1CCCC[C@H]1N.[Na+].[Pt+2] (relative stereo) | Sarcoma 180 ascites | 6/ 6 |

# return recorded Surv. for entry CC1C(=O)[O][Pt][O]P1(=O)[O-].N.N.[Na+] (racemic) [Ex 15, Na[cis-Pt(NH3)2(2-phosphonopropionate)]]
0/ 6

---

# System: Sarcoma 180 ascites
# assay.info: S180a screening (Sarcoma 180 ascites tumor model), increase in life span
# Type: in vivo, CFW mice
# test.conditions: dose 160.00 mg/kg on day 1, vehicle water
readout: %ILS (%)
Lab book: enter the figure in %, no units written.

| compound | target.under.test | units | %ILS |
| --- | --- | --- | --- |
| N[C@@H]1CCCC[C@H]1N.O=C1[O][Pt][O]P1(=O)[O-].[Na+] [Ex 20, Na[Pt(trans-R,R-dach)(phosphonoformate)]] | Sarcoma 180 ascites | % | 59 |

# return recorded %ILS for entry NCCN.O=C1CP(=O)(O)[O][Pt][O]1 [Ex 16, H[Pt(en)(phosphonoacetate)]]
85

# return recorded %ILS for entry CC(N)CN.CC1C(=O)[O][Pt][O]P1(=O)[O-].[Na+] (mixture of isomers) [Ex 12, Na[Pt(pn)(2-phosphonopropionate)]]
53

---

# System: L1210 leukemia
# assay.info: L1210 screening (L1210 leukemia tumor model), increase in life span
# Type: in vivo, Female CDF1 mice
# test.conditions: dose 320.00 mg/kg on day 1, vehicle water; survivors
Here the recorded Surv. is given for each entry.

| molecule | target.under.test | observed.measurement |
| --- | --- | --- |
| N[C@@H]1CCCC[C@H]1N.O=C1[O][Pt][O]P1(=O)[O-].[Na+] [Ex 20, Na[Pt(trans-R,R-dach)(phosphonoformate)]] | L1210 leukemia | 0/ 6 |
| CCC1C(=O)[O][Pt][O]P1(=O)[O-].N.N.[Na+] (racemic) [Ex 14, Na[cis-Pt(NH3)2(2-phosphonobutyrate)]] | L1210 leukemia | 0/ 6 |

Shifting focus to the molecule that follows.
System L1210 leukemia. Read-out Surv.. Item CCCC1C(=O)[O][Pt][O]P1(=O)[O-].NC1CCCCC1N.[Na+] (mixture of isomers) . Report value.
1/ 6
